# targetOrSystem: GDP-bound KRAS wild-type protein (Homo sapiens, UniProt P01116)
# Sequence (P01116 whole entry): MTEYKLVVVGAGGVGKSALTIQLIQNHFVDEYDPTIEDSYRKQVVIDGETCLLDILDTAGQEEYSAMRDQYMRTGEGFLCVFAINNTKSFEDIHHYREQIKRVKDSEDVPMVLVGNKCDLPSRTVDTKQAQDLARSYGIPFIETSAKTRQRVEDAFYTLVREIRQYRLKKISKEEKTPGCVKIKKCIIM
# protocolDescription: Binding to KRAS by surface plasmon resonance (SPR), Single Cycle Kinetics
# setupConditions: SPR Single Cycle Kinetics, GDP-bound KRAS wild-type protein, 1:1 binding model; read-out: KRAS KD
*1 amine or outer side, *2 acyl side, *3 side chain or, on linkers, in order; H or OH if unused. Where a SMILES comes first, the peptide text is derived from it. Bridges are numbered along the chain shown (N, C = ends). [ ]: non-standard residue; d: D form. The star is where a group is joined. hPhe(3-Cl-4-CF3) = N[C@@H](CCc1ccc(C(F)(F)F)c(Cl)c1)C(=O)O; X40 = CC(C)CN([C@@H](Cc1ccc(C(F)(F)F)cc1)C(=O)[*:2])[*:1]; NPrPhe(4-CF3) = CCCN[C@@H](Cc1ccc(C(F)(F)F)cc1)C(=O)O; NMeGly(cPent) = CN[C@H](C(=O)O)C1CCCC1; NMeD = CN[C@@H](CC(=O)O)C(=O)O; NMeL = CN[C@@H](CC(C)C)C(=O)O; Morpholide = C1CN(*)CCO1; NMeA = CN[C@@H](C)C(=O)O; Ac5c = NC1(C(=O)O)CCCC1; Aze = O=C(O)[C@@H]1CCN1; Ac4c = NC1(C(=O)O)CCC1; Sar = CNCC(=O)O
pKd values by entry
To interpret pKd, take it as minus log10 of a concentration measured in moles per litre.

Input line: Requested field: pKd. Item: CC[C@H](C)[C@@H]1NC(=O)[C@H](CC(C)C)N(C)C(=O)C[C@@H](C(=O)N2CCOCC2)N(C)C(=O)[C@H](C2CCCC2)N(C)C(=O)C2(CCCC2)NC(=O)[C@@H]2CCCN2C(=O)[C@H](CCc2ccc(C(F)(F)F)c(Cl)c2)NC(=O)CN(C)C(=O)[C@H](Cc2ccc(C(F)(F)F)cc2)N(CC(C)C)C(=O)CN(C)C(=O)CN(C)C1=O [PP0121] ([NMeL]I[Sar][Sar][X40][Sar][hPhe(3-Cl-4-CF3)]P[Ac5c][NMeGly(cPent)][NMeD]-Morpholide; lactam N-11)
Output line: 8.68

Input line: Need pKd of CCCN1C(=O)[C@@H]2CCN2C(=O)[C@H](C)N(C)C(=O)[C@H]([C@@H](C)CC)NC(=O)[C@H](CC(C)C)N(C)C(=O)C[C@@H](C(=O)N(C)C)N(C)C(=O)[C@H](C2CCCC2)N(C)C(=O)C2(CCC2)NC(=O)[C@@H]2CCCN2C(=O)[C@H](CCc2ccc(C(F)(F)F)c(Cl)c2)NC(=O)CN(C)C(=O)[C@@H]1Cc1ccc(C(F)(F)F)cc1 [PP0435] ([NMeL]I[NMeA][Aze][NPrPhe(4-CF3)][Sar][hPhe(3-Cl-4-CF3)]P[Ac4c][NMeGly(cPent)][NMeD]-NMe2; lactam N-11) , thanks.
Output line: 10.33
